- Experimental target: Cav1.2/β3/α2δ (Homo sapiens, UniProt Q13936)
- Construct: expressed in transfected cells; host or cells: Xenopus laevis oocytes (cRNA injection, Cav1.2:β3:α2δ 2:1:1 by weight)
- Sequence (Q13936 1-2138 isoform Q13936-20): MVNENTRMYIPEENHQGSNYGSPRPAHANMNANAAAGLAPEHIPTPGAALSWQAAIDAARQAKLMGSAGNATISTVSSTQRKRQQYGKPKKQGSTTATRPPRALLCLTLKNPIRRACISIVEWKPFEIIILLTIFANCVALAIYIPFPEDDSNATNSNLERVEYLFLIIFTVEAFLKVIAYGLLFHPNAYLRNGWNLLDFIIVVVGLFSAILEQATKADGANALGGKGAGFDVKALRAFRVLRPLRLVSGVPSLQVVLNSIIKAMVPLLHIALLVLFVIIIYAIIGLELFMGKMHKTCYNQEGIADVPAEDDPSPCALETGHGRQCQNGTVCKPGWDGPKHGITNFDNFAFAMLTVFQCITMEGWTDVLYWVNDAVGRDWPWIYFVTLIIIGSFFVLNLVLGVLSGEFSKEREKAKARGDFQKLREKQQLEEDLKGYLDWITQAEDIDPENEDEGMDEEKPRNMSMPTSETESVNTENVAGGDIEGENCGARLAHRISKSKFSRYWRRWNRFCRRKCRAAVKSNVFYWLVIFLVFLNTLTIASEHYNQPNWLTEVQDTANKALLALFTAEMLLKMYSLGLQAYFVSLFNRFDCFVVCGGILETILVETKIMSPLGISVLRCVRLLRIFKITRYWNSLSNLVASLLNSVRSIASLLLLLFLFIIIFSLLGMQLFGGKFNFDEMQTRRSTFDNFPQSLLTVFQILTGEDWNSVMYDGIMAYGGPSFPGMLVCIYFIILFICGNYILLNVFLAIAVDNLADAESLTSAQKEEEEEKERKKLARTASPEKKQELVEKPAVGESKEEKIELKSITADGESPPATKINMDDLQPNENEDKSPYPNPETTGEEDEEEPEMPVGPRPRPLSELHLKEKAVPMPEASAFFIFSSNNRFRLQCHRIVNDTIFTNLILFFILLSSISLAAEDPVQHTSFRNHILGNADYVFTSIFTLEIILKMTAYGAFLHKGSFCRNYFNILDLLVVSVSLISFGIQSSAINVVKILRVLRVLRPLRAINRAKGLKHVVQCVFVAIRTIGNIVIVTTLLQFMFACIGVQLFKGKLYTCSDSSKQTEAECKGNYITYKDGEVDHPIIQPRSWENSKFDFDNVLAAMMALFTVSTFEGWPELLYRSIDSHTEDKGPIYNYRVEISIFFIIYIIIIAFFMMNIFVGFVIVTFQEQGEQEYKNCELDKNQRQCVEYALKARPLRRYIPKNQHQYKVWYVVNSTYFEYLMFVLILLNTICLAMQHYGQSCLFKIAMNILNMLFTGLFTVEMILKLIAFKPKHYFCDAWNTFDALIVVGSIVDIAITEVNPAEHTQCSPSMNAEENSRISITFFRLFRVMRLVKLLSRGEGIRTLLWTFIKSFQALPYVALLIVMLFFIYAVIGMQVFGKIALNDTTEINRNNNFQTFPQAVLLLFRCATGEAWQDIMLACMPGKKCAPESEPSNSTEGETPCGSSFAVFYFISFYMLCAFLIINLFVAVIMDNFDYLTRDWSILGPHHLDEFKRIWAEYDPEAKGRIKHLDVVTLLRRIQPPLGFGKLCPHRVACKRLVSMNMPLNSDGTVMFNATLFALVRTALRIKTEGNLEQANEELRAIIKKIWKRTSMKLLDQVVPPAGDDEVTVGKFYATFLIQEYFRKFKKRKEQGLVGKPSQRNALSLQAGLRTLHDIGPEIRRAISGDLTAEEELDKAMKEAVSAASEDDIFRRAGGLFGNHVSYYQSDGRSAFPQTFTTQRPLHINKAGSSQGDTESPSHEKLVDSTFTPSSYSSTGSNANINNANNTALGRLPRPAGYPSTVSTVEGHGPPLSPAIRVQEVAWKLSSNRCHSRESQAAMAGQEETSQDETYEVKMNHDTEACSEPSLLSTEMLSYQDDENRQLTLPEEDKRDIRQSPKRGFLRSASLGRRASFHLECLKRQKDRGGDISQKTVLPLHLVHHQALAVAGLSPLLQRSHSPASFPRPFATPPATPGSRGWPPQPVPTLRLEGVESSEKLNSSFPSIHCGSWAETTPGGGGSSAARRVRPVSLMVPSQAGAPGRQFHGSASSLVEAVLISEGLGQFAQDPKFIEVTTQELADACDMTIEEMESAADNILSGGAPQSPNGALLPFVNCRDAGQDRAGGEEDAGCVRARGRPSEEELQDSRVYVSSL
- Sequence (P54286 whole entry partner): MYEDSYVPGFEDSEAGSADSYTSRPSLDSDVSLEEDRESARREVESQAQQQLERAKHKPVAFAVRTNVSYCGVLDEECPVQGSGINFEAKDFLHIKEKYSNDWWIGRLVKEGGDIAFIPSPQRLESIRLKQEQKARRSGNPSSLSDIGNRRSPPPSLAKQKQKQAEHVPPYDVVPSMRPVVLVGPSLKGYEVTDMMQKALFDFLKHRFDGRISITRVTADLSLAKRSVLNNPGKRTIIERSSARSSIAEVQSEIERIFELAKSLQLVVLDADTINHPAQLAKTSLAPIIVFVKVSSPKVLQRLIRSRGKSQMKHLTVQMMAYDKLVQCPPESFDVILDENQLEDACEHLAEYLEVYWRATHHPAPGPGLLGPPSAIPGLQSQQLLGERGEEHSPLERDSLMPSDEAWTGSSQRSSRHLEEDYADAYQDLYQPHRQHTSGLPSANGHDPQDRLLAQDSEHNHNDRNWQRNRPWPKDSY
- Sequence (P13806 27-960 partner): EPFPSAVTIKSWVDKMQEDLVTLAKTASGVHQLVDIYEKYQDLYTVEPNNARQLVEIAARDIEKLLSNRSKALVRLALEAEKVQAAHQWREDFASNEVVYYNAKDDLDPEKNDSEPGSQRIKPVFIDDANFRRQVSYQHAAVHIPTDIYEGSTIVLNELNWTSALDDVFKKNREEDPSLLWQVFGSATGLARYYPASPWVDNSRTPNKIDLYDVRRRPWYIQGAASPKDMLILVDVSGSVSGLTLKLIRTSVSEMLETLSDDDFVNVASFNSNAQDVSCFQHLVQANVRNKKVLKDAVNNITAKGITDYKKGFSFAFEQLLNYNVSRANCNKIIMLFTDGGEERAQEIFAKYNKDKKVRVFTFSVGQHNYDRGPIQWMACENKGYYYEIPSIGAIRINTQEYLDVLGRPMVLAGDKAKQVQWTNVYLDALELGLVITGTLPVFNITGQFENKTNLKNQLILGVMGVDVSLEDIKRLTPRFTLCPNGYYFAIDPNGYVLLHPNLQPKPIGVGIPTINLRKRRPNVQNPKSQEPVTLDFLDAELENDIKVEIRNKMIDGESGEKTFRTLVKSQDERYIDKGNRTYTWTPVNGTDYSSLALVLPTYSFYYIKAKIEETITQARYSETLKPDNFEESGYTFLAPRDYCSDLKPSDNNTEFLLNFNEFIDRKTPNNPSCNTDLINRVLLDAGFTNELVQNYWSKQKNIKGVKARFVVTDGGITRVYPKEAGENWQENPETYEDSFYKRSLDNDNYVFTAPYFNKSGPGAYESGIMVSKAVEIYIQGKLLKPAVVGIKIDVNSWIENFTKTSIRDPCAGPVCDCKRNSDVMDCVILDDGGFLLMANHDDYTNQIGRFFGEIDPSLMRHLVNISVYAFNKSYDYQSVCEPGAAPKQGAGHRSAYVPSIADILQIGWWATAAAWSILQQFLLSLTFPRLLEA
- Sequence (P13806 961-1106 partner): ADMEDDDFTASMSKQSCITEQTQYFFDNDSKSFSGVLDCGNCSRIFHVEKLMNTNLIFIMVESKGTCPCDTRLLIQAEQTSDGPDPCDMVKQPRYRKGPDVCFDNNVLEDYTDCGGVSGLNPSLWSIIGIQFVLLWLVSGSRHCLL
- Experiment summary: Two-electrode voltage clamp of Cav1.2/β3/α2δ expressed in Xenopus oocytes (Ba2+ as charge carrier)
- Type: cell-based
- Particulars: 7 μM
Measurement label: Gmax/Gmax0

Example entries begin here.
{"columns": ["Molecule", "Experimental target", "Gmax/Gmax0"],
 "data": [
  ["CCCCC/C=C\\C/C=C\\CCCCCCCC(=O)NCCS(=O)(=O)O", "Cav1.2/β3/α2δ (Homo sapiens, UniProt Q13936)", "0.6 ± 0.05"],
  ["CCCCC/C=C\\C/C=C\\CCCCCCCC(=O)NCC(=O)O", "Cav1.2/β3/α2δ (Homo sapiens, UniProt Q13936)", "1.0 ± 0.1"],
  ["CCCCC/C=C\\C/C=C\\C/C=C\\C/C=C\\CCCC(=O)NCCS(=O)(=O)O", "Cav1.2/β3/α2δ (Homo sapiens, UniProt Q13936)", "0.7 ± 0.1"]
]}

Provide only the value of recorded Gmax/Gmax0 for `CCCCC/C=C\C/C=C\CC/C=C\CCCC(=O)NCCS(=O)(=O)O`
0.8 ± 0.1

Provide only the value of recorded Gmax/Gmax0 for `CC/C=C\C/C=C\C/C=C\C/C=C\C/C=C\C/C=C\CCC(=O)NCCS(=O)(=O)O`
1.1 ± 0.1

Provide only the value of recorded Gmax/Gmax0 for `CC/C=C\C/C=C\C/C=C\C/C=C\C/C=C\C/C=C\CCC(=O)NCC(=O)O`
1.0 ± 0.1

Provide only the value of recorded Gmax/Gmax0 for `CCCCC/C=C\C/C=C\CC/C=C\CCCC(=O)NCC(=O)O`
0.8 ± 0.1
